Target: T1, recombinant human IL-23R/Fc chimera (R&D Systems) (human, UniProt Q5VWK5 24-353)
T1 construct: bought; also called human IL-23R/Fc fusion protein; rhIL23RFc
T1 sequence (looked up): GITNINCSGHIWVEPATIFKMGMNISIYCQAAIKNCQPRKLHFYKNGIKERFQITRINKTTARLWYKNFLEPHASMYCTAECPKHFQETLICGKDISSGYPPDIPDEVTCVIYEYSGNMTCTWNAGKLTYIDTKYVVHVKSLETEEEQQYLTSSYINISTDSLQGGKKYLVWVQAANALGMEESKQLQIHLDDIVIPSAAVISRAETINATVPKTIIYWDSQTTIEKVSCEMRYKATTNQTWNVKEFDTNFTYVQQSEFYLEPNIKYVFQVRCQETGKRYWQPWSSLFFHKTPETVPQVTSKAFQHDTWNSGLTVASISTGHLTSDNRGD
Assay: SPR (Biacore), captured IL-23R/Fc, ATRIMER
This section presents binders with their documented Kd values.
Respond with the bare value in nM.

- BINDER: "101-54-4B10 ATRIMER (designed binder, ATRIMER is a homotrimer; one protomer is given., not shown: C-terminal purification tag: Myc/His6 (pANA4) or HA-StrepII (pANA10)) EPPTQKPKKIVNAKKDVVNTKMFEELKSRLDTLAQEVALLKEQQALQTVCLKGTKVHMKCFLAFTQTKTFHEASEDCISRGGTLSTPQTGSENDALYEYLRQSVGNEAEIWLGLNGSALTNTWVDMTGARIAYKNWERPPLYQPGGGFGYFGENCAVLSGAANGKWFDKRCRDQLPYICQFGIV"
  Kd, nM: 0.897
- BINDER: "101-113-6C108 ATRIMER (designed binder) EPPTQKPKKIVNAKKDVVNTKMFEELKSRLDTLAQEVALLKEQQALQTVCLKGTKVHMKCFLAFTQTKTFHEASEDCISRGGTLSTPQTGSENDALYEYLRQSVGNEAEIWLGLNGSALTNTWVDMTGARIAYKNWEPPPPHHPMGGFGVFGENCAVLSGAANGKWFDKRCRDQLPYICQFGIV"
  Kd, nM: 0.613
- BINDER: "101-51-1A4 ATRIMER (designed binder, also called ATRIMER complex 1A4) EPPTQKPKKIVNAKKDVVNTKMFEELKSRLDTLAQEVALLKEQQALQTVCLKGTKVHMKCFLAFTQTKTFHEASEDCISRGGTLSTPQTGSENDALYEYLRQSVGNEAEIWLGLNGSALTNTWVDMTGARIAYKNWERPALVQPRGGFGVFGENCAVLSGAANGKWFDKRCRDQLPYICQFGIV"
  Kd, nM: 0.388
- BINDER: "101-80-5H3 ATRIMER (designed binder, ATRIMER is a homotrimer; one protomer is given., one residue deleted from Loop 4 (-GVFG); the GlyGly to AlaAla change; not shown: C-terminal purification tag: Myc/His6 (pANA4) or HA-StrepII (pANA10)) EPPTQKPKKIVNAKKDVVNTKMFEELKSRLDTLAQEVALLKEQQALQTVCLKGTKVHMKCFLAFTQTKTFHEASEDCISRGGTLSTPQTGSENDALYEYLRQSVGNEAEIWLGLNGSALTNTWVDMTGARIAYKNWEPPAPYHPMAAGVFGENCAVLSGAANGKWFDKRCRDQLPYICQFGIV"
  Kd, nM: 6.46
- BINDER: "101-51-1A9 ATRIMER (designed binder, ATRIMER is a homotrimer; one protomer is given., not shown: C-terminal purification tag: Myc/His6 (pANA4) or HA-StrepII (pANA10)) EPPTQKPKKIVNAKKDVVNTKMFEELKSRLDTLAQEVALLKEQQALQTVCLKGTKVHMKCFLAFTQTKTFHEASEDCISRGGTLSTPQTGSENDALYEYLRQSVGNEAEIWLGLNGSALTNTWVDMTGARIAYKNWEPARQPQPGGGFGYFGENCAVLSGAANGKWFDKRCRDQLPYICQFGIV"
  Kd, nM: 0.955

Given 101-51-1A5 ATRIMER (designed binder) EPPTQKPKKIVNAKKDVVNTKMFEELKSRLDTLAQEVALLKEQQALQTVCLKGTKVHMKCFLAFTQTKTFHEASEDCISRGGTLSTPQTGSENDALYEYLRQSVGNEAEIWLGLNGSALTNTWVDMTGARIAYKNWENGHEPQPRGGFGYFGENCAVLSGAANGKWFDKRCRDQLPYICQFGIV , respond with its Kd. 0.584

# credit: patent US20110086770A1
